Kindly supply the reported composite z-score values for the records listed here.
# METHOD_SUMMARY: probe aNOTCH3 binding on compound microarray – biochemical, small-molecule microarray, 635/667 nm fluorescence, primary screen (AID 1120);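 also: probe is a biotin-tagged antibody raised against NOTCH3 rather than NOTCH3 protein; score merges spot fluorescence near 667 nm with spot signal to noise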
# MEASUREMENT_CONTEXT: higher = more signal
// response body must contain only the number

So what's the measured composite z-score for this one? COc1cccc(C)c1NC(=O)O[C@H]1[C@H](OC(=O)Nc2ccc3c(c2)OCO3)[C@@H](OC(=O)Nc2ccc3c(c2)OCO3)[C@@H](OC)O[C@@H]1CO
0.508

Can you handle NC(=O)[C@@]1(Cc2ccccc2)COC(c2ccc(OCCCO)cc2)=N1 next?
-0.0647

# repeat for CC(C)[Si](C#CCCCC#N)(O[C@H](c1ccccc1)c1cn(Cc2ccccc2)nn1)C(C)C
0.123

Another: COCCCNC(=O)[C@@H]1c2ccccc2C(=O)N(C(C)C)[C@H]1c1ccc(CO)cc1
0.0577

Record: O=C1OCCC=C[C@H]2OC34C=CCN(c5ccc6ccccc6c5)C(=O)[C@H]3N(CCCO)C(=O)[C@@H]4C12 (stereo partly drawn)
-0.278

Another: CN(C)c1ccc(C(O)C2C=CC3C(=O)NC(=O)C3N2Nc2ccccn2)cc1 (stereo not drawn)
-0.0419

Now give it for COC(=O)C1=CC(CCCO)=CC(c2cccs2)N(C)C=C1C(=O)OC (stereo not drawn) too.
-0.0879

And for CC(C)N1C(=O)C[C@@](C(=O)NC2CC2)(c2ccc([N+](=O)[O-])cc2)[C@H]1c1ccc(CO)cc1 ?
-0.339

====

# METHOD_SUMMARY: probe aDKK1 binding to arrayed compounds – biochemical, biotinylated probe, 635/667 nm fluorescence, primary screen (AID 1099);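 also: score merges 667nm spot fluorescence with signal to noise across triplicate slides; reference of the scale not given here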
# MEASUREMENT_CONTEXT: small-molecule microarray, higher = more signal
QUANTITY_KIND: composite z-score
Kindly provide the number alone.

Request the reported composite z-score associated with CCCN1C(=O)[C@@]2(Cc3ccccc31)N=C(c1ccc(OCCCO)cc1)O[C@H]2c1ccccc1
0.402

Same for CO[C@H]1O[C@H](CO)[C@@H](OC(=O)CCc2ccccc2)[C@@H]2OC(=O)[C@@H](Cc3ccccc3)C/C=C/C[C@H](Cc3ccccc3)C(=O)O[C@@H]12
0.253

Same read-out for CCCC=C(CCC)[C@@H](NS(=O)(=O)CC12CCC(CC1=O)C2(C)C)c1ccc(C(=O)OC)cc1 (some centres undefined) ?
0.615

Okay, and CCOC(=O)C[C@H]1[C@H](OC(=O)c2cc3ccccc3oc2=O)[C@@H](NC(=O)c2ccc3ccccc3n2)c2cc(OCCCO)ccc2N1C(=O)Cc1ccc(OC)cc1 ?
-0.207

// next record COc1ccc([Si](C)(C)[C@H]2[C@H](CC(=O)N3Cc4ccccc4C[C@H]3CO)O[C@@]3(C(=O)N(Cc4ccc(N5CCOC5=O)cc4)c4ccccc43)[C@@H]2C)cc1
-0.161

Likewise for C=C(C(=O)CC[C@H](OC(=O)c1ccccc1-c1ccccc1C(=O)O)c1cccc(OCCO)c1)C(C)C ?
0.414

Next entry: C[C@@H]1NC(=O)[C@@H](Cc2ccccc2)NC(=O)[C@@]23C(=O)N[C@@H](Cc4ccccc4)C2[C@H](C)[C@@]2(C)O[C@H]2C3/C=C/C/C=C\CNC1=O (some centres undefined)
-0.259

And the next one, COCCOC(=O)N1C(=O)[C@@]2(c3cc(C#CC4(O)CCCCCC4)ccc31)[C@H](C(=O)Nc1nc3ccccc3s1)[C@H]1C(=O)O[C@H](c3ccccc3)[C@H](c3ccccc3)N1[C@@H]2c1ccc(O)cc1 ?
0.316

Lookup C=CCOC(=O)[C@@H]1[C@H]2C(=O)O[C@H](c3ccccc3)[C@H](c3ccccc3)N2[C@H](c2ccc(OCCOC(=O)[C@@H]3C[C@@H]4C(=O)N[C@@H](CCCC[N+](C)(C)C)C(=O)N4[C@@H]3c3ccc(O)cc3)cc2)[C@@]12C(=O)Nc1ccc(I)cc12
-0.178

Now give it for CCCCC(=C=CC[C@H](O)c1ccc(OCCO)cc1)CCO too.
-0.194

Request: CC#CCO[Si](C#Cc1ccccc1)(C(C)C)C(C)C
-0.105

Please do the same for O=C(O)[C@@H]1C[C@@H]2C(=O)N3CCC[C@H]3C(=O)N2[C@@H]1c1ccc(O)cc1 as well.
0.857

// query: O=C1O[C@H](c2ccccc2)[C@H](c2ccccc2)N2[C@H]1[C@@H](C(=O)O)[C@]1(C(=O)Nc3ccc(C#CCCO)cc31)[C@H]2c1ccccc1OCCO
-0.445

Item: COC(=O)[C@@H]1N=C(c2ccc(OCCCO)cc2)O[C@@H]1c1ccccc1
0.311

Also CCOC(=O)C[C@H]1[C@H](OC(=O)Cc2ccc3c(c2)OCO3)[C@@H](NC(=O)c2ccc3ccccc3n2)c2cc(OCCCO)ccc2N1C(=O)c1ccccc1 , if possible.
0.0565

Moving on to the next compound: COC(=O)[C@@]1(Cc2ccc(OC)cc2)[C@H]2c3cc(C(=O)N(C)C)n(Cc4ccc(OC(F)(F)F)cc4)c3C[C@H]2CN1C(=O)c1ccccc1
0.34

Same question, CC(C)N1CC=CC23O[C@@H]4C=CCCOC(=O)C4[C@H]2C(=O)N(CCCO)[C@@H]3C1=O (some centres undefined) this time
-0.137

Can you check CCCC=C(CCC)[C@@H](NC(=O)c1cccs1)c1ccc(C(=O)OC)cc1 next?
1.96

Subsequent entry: CCCC[C@@H](O)C1=C(COc2ccccc2)C[C@H]2C(=O)N(Cc3ccccc3)C(=O)[C@H]2[C@H]1CO
-0.302

// query: CCOC(=O)C[C@H]1[C@H](OC(=O)c2ccc(C(=O)c3ccccc3)cc2)[C@@H](NC(=O)CC(C)C)c2cc(OCCCO)ccc2N1C(=O)c1ccccc1
-0.0013

What do we get for N[C@@H](Cc1ccccc1)C(=O)NCc1cn(Cc2ccccc2)nn1 ?
0.0195

And CCCCN1CC=CC23O[C@@H]4/C=C\CCCOC(=O)C4[C@H]2C(=O)N(CCO)[C@@H]3C1=O (some centres undefined) ?
-0.356

// next record COc1cc(NN2C(C(O)c3ccco3)C=CC3C(=O)N(C)C(=O)C32)cc(OC)c1OC (centres undefined)
0.88

# repeat for COC(=O)c1c(CC[C@@H](CO)NC(=O)N[C@@H](C)Cn2cc(-c3ccccn3)nn2)oc(C(C)=O)c1C(=O)OC
-0.18

Okay, and C=CC[C@@]1(C(=O)NCCCOC)N=C(c2ccc(OCCCO)cc2)O[C@@H]1c1ccccc1N=[N+]=[N-] ?
0.648

Try this compound next: Cc1ccc(S[C@]2(C(=O)NCCN3CCOCC3)CC(=O)N(Cc3ccccc3Cl)[C@@H]2c2ccc(CO)cc2I)cc1
-0.831

Can you check COC(=O)[C@@]1(Cc2ccc(F)cc2)[C@H]2c3cc(C(=O)N4CCCC4)n(Cc4ccc(C)c(F)c4F)c3C[C@H]2CN1C(=O)c1ccccc1 next?
0.902

And [N-]=[N+]=NCc1ccccc1C[C@@]1(C(N)=O)N=C(c2ccc(OCCCO)cc2)O[C@@H]1c1ccccc1 ?
0.67

Same question, CCCCC(CC)C(O)C1C=CC2C(=O)N(C)C(=O)C2N1Nc1ccccc1 (centres undefined) this time
0.559

FYI, the data here is from PubChem BioAssay.
